- System: Saccharomyces cerevisiae
- Protocol Text: protein stability index of tFT-peptide fusion (C-terminal peptide) (PSI (0-1 scale)); higher = more stable (slower turnover)
- Conditions Used: genetic background: das1 deletion; temperature: 30 C
// label = Y if protein stability index is not less than 0.7, otherwise N

Seq	Assigned Label
NPEATTKPKPRL [PTC5 C-terminal 12 aa]	Y
QLNLVVNGVRLN [YLR379W C-terminal 12 aa]	N
IEAPQFYRYWSA [SWI3 C-terminal 12 aa]	Y

----------
- Test system: Saccharomyces cerevisiae
- Protocol Text: protein stability index of tFT-peptide fusion (C-terminal peptide) (PSI (0-1 scale)); higher = more stable (slower turnover)
- Conditions Used: genetic background: wild type; temperature: 30 C
Binning of protein stability index into classes: range A = under 0.6, range B = from 0.6 up to 0.7, range C = 0.7 and over

Seq	Assigned Label
PLPRPPRLVFSS	range A
CPFLTLLISLDV	range A
VLLYAPLLPPLA	range B
VGIVWELGCWMG	range A
AVPGLPLWWQPS	range C
RRRNQAAHLYSH	range A
QSWEDILKINEE	range C
NSSPCPLPLLPP	range B
PRRPLPPSPPRE	range C
ALLPFLTPLLSR	range A
TWMRIRLFRFIP	range A
QEQITKETDLTH	range B
NRSIFITMDSSL	range B
IWLVRLSCARAF	range A
FFGRWWWSFLLA	range A
